- System Under Test: PfIspE (Plasmodium falciparum)
- Procedure Summary: PfIspE enzymatic assay (coupled to PK/LDH, NADH oxidation at 340 nm)
- Format: biochemical
- Applied Conditions: fresh batch, freshly prepared stock solution
pIC50: −log10 of the molar value.
So I've got a bunch of compounds here, and I need their pIC50 values.

I would be grateful if you could provide pIC50 for each of the following entries.
1. CCn1c(C)cc(-c2csc(Nc3ccccc3OC)n2)c1C
2. CCn1c(C)cc(-c2csc(Nc3ccccc3C(F)(F)F)n2)c1C

1. < 3.30
2. < 3.30

====

- System Under Test: PfIspE (Plasmodium falciparum, UniProt Q8I470)
- Sequence (Q8I470 entry or part of it): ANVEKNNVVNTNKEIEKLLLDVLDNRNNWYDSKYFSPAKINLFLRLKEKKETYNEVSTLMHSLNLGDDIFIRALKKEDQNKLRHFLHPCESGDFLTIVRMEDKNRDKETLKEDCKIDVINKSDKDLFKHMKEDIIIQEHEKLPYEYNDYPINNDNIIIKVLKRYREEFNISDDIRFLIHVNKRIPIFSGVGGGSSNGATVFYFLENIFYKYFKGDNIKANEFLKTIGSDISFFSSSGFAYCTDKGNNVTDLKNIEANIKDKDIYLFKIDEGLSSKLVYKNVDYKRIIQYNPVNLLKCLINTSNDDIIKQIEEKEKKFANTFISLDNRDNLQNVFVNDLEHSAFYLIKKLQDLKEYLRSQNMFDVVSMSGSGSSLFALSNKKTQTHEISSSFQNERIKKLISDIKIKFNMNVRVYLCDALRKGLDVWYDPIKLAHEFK
- Procedure Summary: PfIspE enzymatic assay (coupled to PK/LDH, NADH oxidation at 340 nm)
- Format: biochemical
- Applied Conditions: analytical sample, DMSO at RT, 4 days of incubation; dissolved in methanol shortly before the assay
- Protocol: Firstly, we performed a temperature‐dependent decomposition study of compound 1 at 10 mM concentration in DMSO at room temperature (RT), +4 °C and −20 °C (SI, Section 2.3). […] Besides visual inspection of the colour changes of the test sample (see Table 2), the decomposition was monitored by HRMS and NMR spectroscopy. […] For the final purified compounds, replicates were measured and standard deviation was calculated at least from two replicates. […]
Experimental Endpoint: pIC50
One number for each entry, as −log10 of the molar value.

// sample CCn1c(C)cc(-c2csc(Nc3ccccc3C(F)(F)F)n2)c1C [Compound 1] , its pIC50 was 4.00

====

- System Under Test: EcIspE (Escherichia coli)
- Construct: made in house
- Sequence (P62615 whole entry): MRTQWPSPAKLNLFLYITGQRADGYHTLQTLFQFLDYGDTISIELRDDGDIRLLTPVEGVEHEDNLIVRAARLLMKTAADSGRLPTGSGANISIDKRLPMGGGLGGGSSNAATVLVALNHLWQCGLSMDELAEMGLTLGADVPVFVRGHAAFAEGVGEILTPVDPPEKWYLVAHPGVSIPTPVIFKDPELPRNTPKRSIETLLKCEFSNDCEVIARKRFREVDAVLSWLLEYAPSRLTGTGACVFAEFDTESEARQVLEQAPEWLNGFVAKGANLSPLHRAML
- Procedure Summary: EcIspE enzymatic assay (coupled to PK/LDH)
- Type: biochemical
- Applied Conditions: analytical sample, DMSO at RT, 0 days of incubation; dissolved in methanol shortly before the assay
Experimental Endpoint: IC50

# IC50 of CCn1c(C)cc(-c2csc(Nc3ccccc3C(F)(F)F)n2)c1C [Compound 1] = > 500 µM

====

Answer each item with its documented IC50.
- System Under Test: PfIspE (Plasmodium falciparum, UniProt Q8I470)
- Procedure Summary: PfIspE enzymatic assay (coupled to PK/LDH, NADH oxidation at 340 nm)
- Format: biochemical
- Applied Conditions: fractions of second purification (DMSO, RT, five days); dissolved in ACN

{"Compound": "CCn1c(C)cc(-c2csc(Nc3ccccc3OC)n2)c1C", "IC50": "> 1.53 mM"}

I would be grateful if you could provide IC50 for each of the following entries.
1. C=CCn1c(C)cc(-c2csc(Nc3ccccc3C(C)C)n2)c1C
2. CCn1c(C)cc(-c2csc(Nc3ccccc3C(F)(F)F)n2)c1C
3. Cc1cc(-c2csc(Nc3ccccc3C(F)(F)F)n2)c(C)n1CC1CCCO1 (stereo not shown)

> 1.42 mM
> 1.37 mM
> 1.19 mM

====

- System Under Test: PK/LDH (pyruvate kinase and lactate dehydrogenase)
- Procedure Summary: PK/LDH auxiliary enzyme assay
- Format: biochemical
- Applied Conditions: 10 mM DMSO stock stored at +4 °C, measured after 3 months
Experimental Endpoint: IC50 (µM)
Numbers only, in µM.

With PK/LDH (pyruvate kinase and lactate dehydrogenase) as the test system, CCn1c(C)cc(-c2csc(Nc3ccccc3C(F)(F)F)n2)c1C showed IC50 of 45

====

- System Under Test: PK/LDH (pyruvate kinase and lactate dehydrogenase)
- Procedure Summary: PK/LDH auxiliary enzyme assay
- Type: biochemical
- Applied Conditions: 10 mM stock in DMSO at RT, 9 days of incubation
- Protocol: Firstly, we performed a temperature‐dependent decomposition study of compound 1 at 10 mM concentration in DMSO at room temperature (RT), +4 °C and −20 °C (SI, Section 2.3). […] Besides visual inspection of the colour changes of the test sample (see Table 2), the decomposition was monitored by HRMS and NMR spectroscopy. […] For the final purified compounds, replicates were measured and standard deviation was calculated at least from two replicates. […]
Experimental Endpoint: IC50 (µM)
One number for each entry, in µM.

// returns IC50 for CCn1c(C)cc(-c2csc(Nc3ccccc3C(F)(F)F)n2)c1C with PK/LDH (pyruvate kinase and lactate dehydrogenase); value = 57

These entries and their values trace back to paper PMC8360061.
